This collection of values is drawn from ChEMBL document CHEMBL4680127.

system: Human immunodeficiency virus 1; experiment: Antiviral activity against wild type HIV1 assessed as inhibitory effect on virus infected cells at 10 uM by cell based inhibition assay; type: functional
Measured attribute: inhibition at 10 µM (%)
Please give a number only; it is taken to be in %.

| Smiles | Measured attribute | Endpoint value |
| --- | --- | --- |
| COc1ccc(S(=O)(=O)N(CC(C)C)C[C@@H](O)[C@H](Cc2ccccc2)NC(=O)c2cc3ccc(O)cc3oc2=O)cc1 | inhibition at 10 µM | 12.3 |
| COc1ccc2cc(C(=O)N[C@@H](Cc3ccccc3)[C@H](O)CN(CC(C)C)S(=O)(=O)c3ccc([N+](=O)[O-])cc3)c(=O)oc2c1 | inhibition at 10 µM | 0.45 |

Tell us which inhibition at 10 µM value is on record for CC(C)CN(C[C@@H](O)[C@H](Cc1ccccc1)NC(=O)Cc1cc(=O)oc2cc(N(C)C)ccc12)S(=O)(=O)c1ccc(N)cc1
18.4

Tell us which inhibition at 10 µM value is on record for CC(C)CN(C[C@@H](O)[C@H](Cc1ccccc1)NC(=O)Cc1cc(=O)oc2cc(N(C)C)ccc12)S(=O)(=O)c1ccc([N+](=O)[O-])cc1
14.7

Tell us which inhibition at 10 µM value is on record for COc1ccc(S(=O)(=O)N(CC(C)C)C[C@@H](O)[C@H](Cc2ccccc2)NC(=O)c2cc3ccccc3oc2=O)cc1
44.8

Tell us which inhibition at 10 µM value is on record for CC(C)CN(C[C@@H](O)[C@H](Cc1ccccc1)NC(=O)c1cc2ccccc2oc1=O)S(=O)(=O)c1ccc(N)cc1
1.34

Tell us which inhibition at 10 µM value is on record for CC(C)CN(C[C@@H](O)[C@H](Cc1ccccc1)NC(=O)c1cc2ccc(O)cc2oc1=O)S(=O)(=O)c1ccc([N+](=O)[O-])cc1
91

Tell us which inhibition at 10 µM value is on record for COc1ccc(S(=O)(=O)N(CC(C)C)C[C@@H](O)[C@H](Cc2ccccc2)NC(=O)Cc2cc(=O)oc3cc(N(C)C)ccc23)cc1
43.8

Tell us which inhibition at 10 µM value is on record for COc1ccc(S(=O)(=O)N(CC(C)C)C[C@@H](O)[C@H](Cc2ccccc2)NC(=O)c2ccc3oc(=O)ccc3c2)cc1
1.26

Tell us which inhibition at 10 µM value is on record for COc1ccc2cc(C(=O)N[C@@H](Cc3ccccc3)[C@H](O)CN(CC(C)C)S(=O)(=O)c3ccc(N)cc3)c(=O)oc2c1
23.2

Tell us which inhibition at 10 µM value is on record for CC(C)CN(C[C@@H](O)[C@H](Cc1ccccc1)NC(=O)c1ccc2oc(=O)ccc2c1)S(=O)(=O)c1ccc(N)cc1
5.61

Tell us which inhibition at 10 µM value is on record for COc1ccc2c(CC(=O)N[C@@H](Cc3ccccc3)[C@H](O)CN(CC(C)C)S(=O)(=O)c3ccc(N)cc3)cc(=O)oc2c1
7.72

Tell us which inhibition at 10 µM value is on record for CC(C)CN(C[C@@H](O)[C@H](Cc1ccccc1)NC(=O)Cc1cc(=O)oc2cc(O)ccc12)S(=O)(=O)c1ccc([N+](=O)[O-])cc1
3.91

Tell us which inhibition at 10 µM value is on record for COc1ccc(S(=O)(=O)N(CC(C)C)C[C@@H](O)[C@H](Cc2ccccc2)NC(=O)c2cc3ccc(OC)cc3oc2=O)cc1
8.28

Tell us which inhibition at 10 µM value is on record for COc1ccc2c(CC(=O)N[C@@H](Cc3ccccc3)[C@H](O)CN(CC(C)C)S(=O)(=O)c3ccc([N+](=O)[O-])cc3)cc(=O)oc2c1
43.7

Tell us which inhibition at 10 µM value is on record for CC(C)CN(C[C@@H](O)[C@H](Cc1ccccc1)NC(=O)c1cc2ccccc2oc1=O)S(=O)(=O)c1ccc([N+](=O)[O-])cc1
27.1

Tell us which inhibition at 10 µM value is on record for CC(C)CN(C[C@@H](O)[C@H](Cc1ccccc1)NC(=O)c1cc2ccc(O)cc2oc1=O)S(=O)(=O)c1ccc(N)cc1
27

Tell us which inhibition at 10 µM value is on record for COc1ccc(S(=O)(=O)N(CC(C)C)C[C@@H](O)[C@H](Cc2ccccc2)NC(=O)Cc2cc(=O)oc3cc(OC)ccc23)cc1
17.7
